Measured values drawn from ChEMBL document CHEMBL5523761 for this set.

# assay-target: D(2) dopamine receptor (Homo sapiens, UniProt P14416)
# Sequence (P14416 whole entry): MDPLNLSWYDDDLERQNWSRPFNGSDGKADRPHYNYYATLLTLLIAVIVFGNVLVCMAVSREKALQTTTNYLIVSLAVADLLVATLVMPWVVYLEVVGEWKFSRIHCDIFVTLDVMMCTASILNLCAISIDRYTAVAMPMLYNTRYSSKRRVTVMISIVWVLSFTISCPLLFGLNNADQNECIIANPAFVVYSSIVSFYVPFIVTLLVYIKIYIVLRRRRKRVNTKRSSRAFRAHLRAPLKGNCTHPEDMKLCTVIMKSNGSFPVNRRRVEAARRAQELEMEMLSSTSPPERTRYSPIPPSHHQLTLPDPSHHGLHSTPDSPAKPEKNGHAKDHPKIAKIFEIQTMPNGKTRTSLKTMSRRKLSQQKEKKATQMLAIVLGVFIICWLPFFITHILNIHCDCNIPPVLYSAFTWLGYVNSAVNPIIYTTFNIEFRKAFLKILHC
# note: boundary value 10 nM maps to not satisfied; Ki below it maps to satisfied

Enquiry: Lab note: Ki threshold 10 nM. Does this compound come in strictly under it? `CCCN1CCc2cccc3c2[C@H]1Cc1cccc(OC(C)=O)c1-3`
Return: not satisfied

Enquiry: Consider Cc1nc2n(c(=O)c1CCN1CCC(c3noc4cc(F)ccc34)CC1)CCCC2O (stereo unspecified) . Does its Ki lie strictly below 10 nM?
Return: satisfied

Enquiry: Given the entry COc1cc2c(cc1OC)[C@@H]1Cc3ccc(OC)c(OC)c3CN1CC2 [TETRAHYDROPALMATINE] , would its reported Ki be below 10 nM?
Return: not satisfied

Enquiry: Input `C=CCN1C[C@H](C(=O)N(CCCN(C)C)C(=O)NCC)C[C@@H]2c3cccc4[nH]cc(c34)C[C@H]21` ; condition: Ki strictly below 10 nM. Does it hold?
Return: satisfied

Enquiry: Lab note: confirm whether the reported Ki for this compound is below 10 nM, equality not counting. compound: `CCCCC(=O)Oc1cccc2c1-c1cccc3c1[C@@H](C2)N(CCC)CC3`
Return: not satisfied

Enquiry: Say whether its Ki is strictly beneath 10 nM. Entry: `COc1cc2c(cc1O)[C@@H]1Cc3ccc(O)c(OC)c3CN1CC2`
Return: not satisfied

* * *

# assay-target: D(2) dopamine receptor (Homo sapiens)
Could you please mark yes for values of IC50 below 300 nM and no for values at or above it?

Answered cases to consult:
COc1cc2c(cc1OC)Oc1c(O)ccc3c1[C@@H](C2)N(C)CC3 : no
COc1ccc(C[C@H]2c3cc(O)c(OC)cc3CCN2C)cc1O [(S)-RETICULINE] : no

Enquiry: Regarding `COc1cc2c(cc1O)C[C@@H]1c3c(ccc(O)c3O2)CCN1C` , kindly confirm whether its IC50 is beneath 300 nM.
Return: yes

Enquiry: Is IC50 strictly under 300 nM for the entry `C=C1CCC[C@]2(C)Cc3occ(C)c3C[C@@H]12` ?
Return: no

Enquiry: Lab note: confirm whether the reported IC50 for this compound is below 300 nM, equality not counting. compound: `COc1cc2c(cc1O)Oc1c(O)ccc3c1[C@H](C2)N(C)CC3`
Return: yes

* * *

# assay-target: 5-hydroxytryptamine receptor 2A (Homo sapiens, UniProt P28223)
# Sequence (P28223 whole entry): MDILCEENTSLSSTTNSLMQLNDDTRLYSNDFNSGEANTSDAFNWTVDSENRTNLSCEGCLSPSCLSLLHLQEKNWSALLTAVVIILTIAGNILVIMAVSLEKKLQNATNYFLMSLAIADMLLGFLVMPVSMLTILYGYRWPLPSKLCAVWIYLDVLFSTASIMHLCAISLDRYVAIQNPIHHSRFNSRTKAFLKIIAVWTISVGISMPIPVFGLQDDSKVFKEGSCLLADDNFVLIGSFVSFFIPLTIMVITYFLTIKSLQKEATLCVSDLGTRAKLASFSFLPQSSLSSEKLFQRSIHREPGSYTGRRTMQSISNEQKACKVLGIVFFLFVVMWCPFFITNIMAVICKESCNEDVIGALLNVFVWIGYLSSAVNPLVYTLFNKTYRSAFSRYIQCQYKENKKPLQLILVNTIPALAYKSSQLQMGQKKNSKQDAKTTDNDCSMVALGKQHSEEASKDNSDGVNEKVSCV
experimental-endpoint: pKi
# log scale: pKi equals minus log10 of the concentration in mol/L

Enquiry: Which value of pKi has been reported for Cc1nc2n(c(=O)c1CCN1CCC(c3noc4cc(F)ccc34)CC1)CCCC2O (stereo unspecified) in the records?
Return: 9.08

* * *

# assay-target: Acetylcholinesterase (Homo sapiens, UniProt P22303)
# Sequence (P22303 whole entry): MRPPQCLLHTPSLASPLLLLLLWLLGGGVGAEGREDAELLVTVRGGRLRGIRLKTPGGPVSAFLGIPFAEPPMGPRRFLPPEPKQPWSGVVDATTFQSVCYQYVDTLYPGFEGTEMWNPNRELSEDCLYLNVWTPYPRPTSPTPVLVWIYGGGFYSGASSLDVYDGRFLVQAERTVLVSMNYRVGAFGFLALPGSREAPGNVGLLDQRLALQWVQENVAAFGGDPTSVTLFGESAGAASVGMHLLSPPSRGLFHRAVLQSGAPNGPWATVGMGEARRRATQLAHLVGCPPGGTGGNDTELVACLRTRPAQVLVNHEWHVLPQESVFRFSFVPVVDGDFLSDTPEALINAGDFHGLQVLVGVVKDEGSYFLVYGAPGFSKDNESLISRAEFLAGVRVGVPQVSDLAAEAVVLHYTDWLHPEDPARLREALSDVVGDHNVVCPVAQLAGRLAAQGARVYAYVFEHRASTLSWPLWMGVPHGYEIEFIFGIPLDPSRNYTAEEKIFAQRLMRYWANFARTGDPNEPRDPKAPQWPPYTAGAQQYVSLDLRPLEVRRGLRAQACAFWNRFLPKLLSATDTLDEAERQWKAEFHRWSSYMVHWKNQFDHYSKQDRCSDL
experimental-endpoint: pIC50
The value called pIC50 is obtained by taking minus log10 of the concentration in mol/L.

Enquiry: Request - read-out pIC50 | tested on Acetylcholinesterase (Homo sapiens, UniProt P22303) | molecule `C=C(C)[C@H](CC=C(C)C)Cc1c(O)cc(OC)c2c1O[C@H](c1ccc(O)cc1O)CC2=O`
Return: 4.38

* * *

# assay-target: 5-hydroxytryptamine receptor 2C (Homo sapiens, UniProt P28335)
# Sequence (P28335 whole entry): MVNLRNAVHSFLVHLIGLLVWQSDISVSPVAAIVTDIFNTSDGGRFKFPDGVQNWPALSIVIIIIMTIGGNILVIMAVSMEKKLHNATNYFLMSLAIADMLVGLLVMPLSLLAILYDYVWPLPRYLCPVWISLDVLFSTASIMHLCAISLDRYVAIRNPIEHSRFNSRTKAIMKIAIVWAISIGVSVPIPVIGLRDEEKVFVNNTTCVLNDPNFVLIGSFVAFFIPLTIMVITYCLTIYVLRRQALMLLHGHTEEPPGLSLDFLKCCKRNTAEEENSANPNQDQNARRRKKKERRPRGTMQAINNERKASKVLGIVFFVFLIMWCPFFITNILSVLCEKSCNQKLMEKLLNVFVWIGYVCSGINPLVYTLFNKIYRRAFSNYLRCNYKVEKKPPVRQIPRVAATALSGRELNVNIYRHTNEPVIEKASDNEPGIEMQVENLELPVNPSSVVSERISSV
experimental-endpoint: Ki (nM)
// units = nM; emit number, no label

Enquiry: # Ki lookup, item Cc1nc2n(c(=O)c1CCN1CCC(c3noc4cc(F)ccc34)CC1)CCCC2O (stereo unspecified)
Return: 19
